- System: Zika virus NS2B-NS3 protease
- assay-procedure: Primary screen GU AMC qHTS for Zika virus inhibitors (AID 1347154); further: nearly all actives have a fitted effect of over 70% in size
- study-conditions: Zika NS2B-NS3 unlinked protease, AMC fluorogenic substrate; series mostly up to 54.1 µM
Records with an inconclusive call do not appear. The source made the active and inactive calls. The call rests on the fitted dose curve; in most records, active means well fitted inhibition curve with a large enough effect; inconclusive means small, poorly fitted or top-dose-only effect; inactive means flat fitted curve, though single readings scatter.
assay-endpoint: outcome

CNC(=O)c1ccc(C)c(-n2c(C)cc(OCc3ccc(F)cc3F)c(Br)c2=O)c1 | inactive
C[C@@H]1CN(Cc2ccc(F)cc2)[C@@H](C)CN1C(=O)c1cc2c(C(=O)C(=O)N(C)C)cn(C)c2cc1Cl | inactive
CN(C)c1ccc(C2Nc3ccc4ccccc4c3C3=C2C(=O)CC(C)(C)C3)cc1Br (stereo not given) | inactive
CC(c1cc2ccccc2s1)N(O)C(N)=O (stereo not given) | inactive
O=C(Nc1ccc(F)c(C(F)(F)F)c1)Nc1nnc(-c2ccncc2)s1 | inactive
CCN(c1ccccc1)c1cc(NC)[n+](C)c(C)n1 | inactive
COc1ccc2c3n(c(=NC(=O)c4cccnc4)nc2c1OC)CCN3 | inactive
CC(C)OC(=O)C1=CN(C(=O)c2ccc(F)c(F)c2)CC(C)(C)c2c1[nH]c1ccccc21 | inactive
CC(=O)NC(C)c1ccc(Oc2ccc(OC(C)C)cc2)cc1 (stereo not given) | inactive
Cc1cc(-c2ccc(CC(=O)Nc3ccc(-c4cccnc4)cc3)cc2)ccn1 | inactive
